- measured.target: CRACM1/STIM1 (Homo sapiens, UniProt Q96D31)
- Construct: Full length human Stim1, CracM1, CracM2 and CracM3 cDNA
- Sequence (Q96D31 whole entry): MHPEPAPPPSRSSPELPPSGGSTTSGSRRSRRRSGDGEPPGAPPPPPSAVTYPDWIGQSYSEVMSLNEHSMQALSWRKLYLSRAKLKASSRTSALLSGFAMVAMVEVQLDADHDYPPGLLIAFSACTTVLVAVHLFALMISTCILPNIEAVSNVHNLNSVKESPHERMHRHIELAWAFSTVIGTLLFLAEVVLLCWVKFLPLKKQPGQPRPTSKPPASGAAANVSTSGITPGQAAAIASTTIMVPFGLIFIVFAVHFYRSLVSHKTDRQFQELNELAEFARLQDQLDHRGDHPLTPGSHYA
- assay.protocol: ICRAC current inhibition in CRACM1/STIM1-CHOK1 cells (patch clamp)
- Format: cell-based
- assay.conditions: 500 nM, activity class
Attribute: inhibition at 0.5 µM

# annotated cases, reported inhibition at 0.5 µM shown
compound.string: C=C(C)c1sc(-c2cccnc2)cc1-c1ccc(NC(=O)c2c(F)cccc2F)nc1
inhibition at 0.5 µM: 50 to 70%

compound.string: Cc1cc(CCc2cccnc2)sc1-c1ccc(NC(=O)c2c(F)cccc2F)cc1
inhibition at 0.5 µM: 70 to 100%

compound.string: CC(C)c1sc(-c2cccnc2)nc1-c1ccc(NC(=O)c2c(F)cccc2F)nc1
inhibition at 0.5 µM: < 50%

compound.string: Cc1cc(C(=O)c2ccccc2)sc1-c1ccc(NC(=O)c2c(F)cccc2F)cc1
inhibition at 0.5 µM: 70 to 100%

compound.string: Cc1sc(-c2cccnc2)nc1-c1ccc(NC(=O)c2c(F)cccc2F)cc1
inhibition at 0.5 µM: 50 to 70%

Entry CC(C)c1sc(-c2cccnc2)cc1-c1ccc(NC(=O)c2c(F)cccc2F)nc1 , inhibition at 0.5 µM reported as < 50%

Entry Cc1sc(-c2ccccn2)nc1-c1ccc(NC(=O)c2c(F)cccc2F)cc1 , inhibition at 0.5 µM reported as 70 to 100%

Entry Cc1cc(Cc2cccnc2)sc1-c1ccc(NC(=O)c2c(F)cccc2F)cc1 , inhibition at 0.5 µM reported as 70 to 100%

Entry Cc1cc(C(=O)c2cccnc2)sc1-c1ccc(NC(=O)c2c(F)cccc2F)cc1 , inhibition at 0.5 µM reported as 70 to 100%

Entry Cc1sc(-c2cccnc2)nc1-c1ccc(NC(=O)c2c(F)cccc2F)nc1 , inhibition at 0.5 µM reported as 70 to 100%

Entry Cc1sc(-c2cnn(C)c2)nc1-c1ccc(NC(=O)c2c(F)cccc2F)nc1 , inhibition at 0.5 µM reported as < 50%

Entry C=C(C)c1sc(-c2cccnc2)cc1-c1ccc(NC(=O)c2c(F)cccc2F)cc1 , inhibition at 0.5 µM reported as < 50%

Entry Cc1sc(-c2ccccn2)nc1-c1ccc(NC(=O)c2c(F)cccc2F)nc1 , inhibition at 0.5 µM reported as 50 to 70%

Entry CC(C)c1sc(-c2cccnc2)cc1-c1ccc(NC(=O)c2c(F)cccc2F)cc1 , inhibition at 0.5 µM reported as 50 to 70%

Entry Cc1sc(-c2cnn(C)c2)nc1-c1ccc(NC(=O)c2c(F)cccc2F)cc1 , inhibition at 0.5 µM reported as 70 to 100%

Entry Cc1cc(C(=O)c2cccnc2)sc1-c1ccc(NC(=O)c2c(F)cccc2F)nc1 , inhibition at 0.5 µM reported as 50 to 70%
